Reference for the values: patent US20110111461A1

Biological target: T1, human epidermal growth factor receptor (EGFR) (human, UniProt P00533 25-1210)
T1 construct: whole, on cells; also called HER-1; ErbB1
Assay: flow cytometry on A431 cells; light chain variants paired with I-HHD

| BINDER | binding result |
| --- | --- |
| humanized ICR62 antibody I-HHD / I-KC4 (antibody, human IgG1, V domains shown) VH: QVQLVQSGAEVKKPGSSVKVSCKASGFTFTDYKIHWVRQAPGQGLEWMGYFNPNSGYSTYAQKFQGRVTITADKSTSTAYMELSSLRSEDTAVYYCARLSPGGYYVMDAWGQGTTVTVSS VL: DIQMTQSPSSLSASVGDRVTITCRASQGINNYLNWYQQKPGKAPKRLIYTTNNLQTGVPSRFSGSGSGTEFTLTISSLQPEDFATYYCLQHNSFPTFGQGTKLEIKR | binds |
| humanized ICR62 antibody I-HHD / I-KC2 (antibody, human IgG1, V domains shown) VH: QVQLVQSGAEVKKPGSSVKVSCKASGFTFTDYKIHWVRQAPGQGLEWMGYFNPNSGYSTYAQKFQGRVTITADKSTSTAYMELSSLRSEDTAVYYCARLSPGGYYVMDAWGQGTTVTVSS VL: DIQMTQSPSSLSASVGDRVTITCRASQGINNWLNWYQQKPGKAPKRLIYNTNNLQTGVPSRFSGSGSGTEFTLTISSLQPEDFATYYCLQHNSFPTFGQGTKLEIKR | binds |
